meta.source: patent US20120172293A1

Target: human Y2 receptor (human) (UniProt P49146)
Sequence (P49146 whole entry): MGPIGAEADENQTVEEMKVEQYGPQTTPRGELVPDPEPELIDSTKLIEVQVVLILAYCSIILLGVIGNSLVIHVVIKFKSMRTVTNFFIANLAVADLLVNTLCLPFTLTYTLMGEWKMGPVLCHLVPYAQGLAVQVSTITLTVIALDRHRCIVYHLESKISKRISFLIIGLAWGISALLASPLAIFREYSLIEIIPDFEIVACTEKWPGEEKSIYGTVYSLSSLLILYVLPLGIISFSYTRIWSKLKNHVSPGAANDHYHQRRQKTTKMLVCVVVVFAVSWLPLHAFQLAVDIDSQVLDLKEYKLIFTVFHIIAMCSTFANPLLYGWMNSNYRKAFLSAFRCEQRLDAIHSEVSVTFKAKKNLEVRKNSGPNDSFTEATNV
Test: RBA: [125I]-PYY displacement, hY2R/CHO membranes
Starred links: 1 amine or outer side, 2 acyl side, 3 side chain; linkers in the order of their positions; H or OH if unused. Non-standard residues stand in square brackets, D forms with d. Azetidine3carboxylic = O=C(C1CN([*:1])C1)[*:2]; Cha = N[C@@H](CC1CCCCC1)C(=O)O; Aib = CC(C)(N)C(=O)O
Measured parameter: IC50 Ratio (vs PYY(3-36))
No unit in the answer, please; the number alone is enough.

Prompt: Identify measured IC50 Ratio (vs PYY(3-36)) corresponding to Ac-S[Azetidine3carboxylic]RH[Cha][Cha]NL[Aib]TRQR[Cha]-NH2 (SMILES CC(=O)N[C@@H](CO)C(=O)N1CC(C(=O)N[C@@H](CCCNC(=N)N)C(=O)N[C@@H](Cc2c[nH]cn2)C(=O)N[C@@H](CC2CCCCC2)C(=O)N[C@@H](CC2CCCCC2)C(=O)N[C@@H](CC(N)=O)C(=O)N[C@@H](CC(C)C)C(=O)NC(C)(C)C(=O)N[C@H](C(=O)N[C@@H](CCCNC(=N)N)C(=O)N[C@@H](CCC(N)=O)C(=O)N[C@@H](CCCNC(=N)N)C(=O)N[C@@H](CC2CCCCC2)C(N)=O)[C@@H](C)O)C1) [Ac-[Aze(3)24, Cha27,28,36, Aib31]-PYY(23-36)]
Completion: 11
